Test system: dedifferentiated liposarcoma (DDLPS) cell line Lipo863
testName: Cell cytotoxicity (MTS) assay
testContext: Homo sapiens, read-out: IC50 (cell cytotoxicity assay)
parameter: IC50 (µM)
Write the number in µM without appending the unit.

I'd like to know its IC50. The compound in question is CN1CCC(=C2c3ccccc3CC(=O)c3sccc32)CC1
63
